System: SW-620 colon
Test: NCI tumour cell line growth inhibition, 48 h; in the data active = GI50 below about 0.43 µM; inactive = the rest
I would appreciate it if you answered using one of these outcomes: 1.0 = active, 0.0 = inactive

Answered cases to consult:
| SAMPLE_SMILES | CLASS |
| --- | --- |
| CC(C)(C)CC(C)(C)c1ccc(OCCSC(=N)N)cc1 | 0.0 |
| CN(CCO)C1CCN(c2ccc(Nc3ncc4c5ccnc(F)c5n(C5CCCC5)c4n3)nc2)CC1 | 1.0 |
| CCCn1c2c(c3ccccc3c1=O)C(=O)c1cc3c(cc1-2)OCO3 | 0.0 |

Now look at this entry.
Could you please tell me the result logged for `O=C1c2ccc3c4c(ccc(c24)C(=O)N1CCCNCc1ccccc1F)C(=O)N(CCCNCc1ccccc1F)C3=O` in this assay?
1.0

* * *

Tested on: NCI-H522 lung
Assay: NCI tumour cell line growth inhibition, 48 h
Below: a set of entries, each annotated with reported TGI.

Field: example entries. Status: answers known.
| COMPOUND | TGI |
| --- | --- |
| NC(=O)c1ncn2c1NCC1OC2C(O)C1O (stereo not drawn) | > 100 µM |
| CCCCCCCCCCCCC/C=C/[C@H]1[C@@H](C(=O)OC)N1S(=O)c1ccc(C)cc1 (stereo partly drawn) | > 100 µM |

Then there is this compound:
The compound identified as CN(CC(=O)O)c1ncc2c(n1)-c1ccccc1OC2c1ccccc1 (stereo not drawn) registered its TGI at > 100 µM

* * *

System: UO-31 renal
Experiment: NCI tumour cell line growth inhibition, 48 h
RESULT_TYPE: TGI

| MOLECULE | EXPERIMENTAL_SYSTEM | TGI |
| --- | --- | --- |
| C=C(C)[C@@H]1C/C=C(\COC(=O)[C@H](OC(C)=O)C(NC(=O)c2ccccc2)c2ccccc2)CC[C@H]2O[C@]2(C)CC/C=C(\C)CC1 (stereo not given in full) | UO-31 renal | > 50 µM |
| CCCn1c2c(c3ccccc3c1=O)C(=O)c1cc3c(cc1-2)OCO3 | UO-31 renal | > 100 µM |
| O=C(NNC(=O)C1CCN(S(=O)(=O)c2ccc(-c3ccccc3)cc2)CC1)c1ccc(C(F)(F)F)cc1 | UO-31 renal | > 50 µM |
| C[Si]1(C)C(c2ccccc2)=CC2C(c3ccccc3)(c3ccccc3)OC21c1ccccc1 (stereo not given) | UO-31 renal | > 100 µM |

Then there is this molecule:
The molecule identified as `C=C1C[C@]23CC[C@@H]4C(CO)(CO)CC(=O)C[C@]4(C)[C@@H]2CC[C@H]1C3` registered its TGI at > 100 µM

* * *

Test system: UACC-257 melanoma
Assay: NCI tumour cell line growth inhibition, 48 h
Below: a set of entries, each annotated with reported TGI.

Field: example entries. Status: answers known.
| COMPOUND | TGI |
| --- | --- |
| O=CC(NC(=O)N(CCCl)N=O)C(O)C(O)C(O)CO (stereo not drawn) | > 1250 µM |
| Cc1[nH]c2ncn(Nc3ccccc3)c(=N)c2c1Cc1ccccc1 | > 100 µM |
| C=C1C(=O)O[C@H]2[C@H]1CC/C(COC(=O)NCc1ccc(Cn3c(=O)sn(CCI)c3=O)cc1)=C\CC[C@@]1(C)O[C@@H]21 | 4.82 µM |

The compound identified as `COc1ccc(N(CC(=O)O)S(=O)(=O)c2ccccc2)cc1` registered its TGI at > 100 µM

The compound identified as C[Si]1(C)C(c2ccccc2)=CC2C(c3ccccc3)(c3ccccc3)OC21c1ccccc1 (stereo not drawn) registered its TGI at > 100 µM

The compound identified as `O=C(O)CCc1nc2c(n1Cc1ccccc1)C(=O)c1ccccc1C2=O` registered its TGI at > 100 µM

The compound identified as O=C(CC1(O)C(=O)Nc2ccc([N+](=O)[O-])cc21)c1ccc2ccccc2c1 (stereo not drawn) registered its TGI at > 100 µM

The compound identified as `COc1cc(/C=C/c2cccnc2)cc(OC)c1OC` registered its TGI at > 100 µM

The compound identified as `O=C(/C=C\c1ccc(-c2ccccc2)cc1)c1cccs1` registered its TGI at > 100 µM

The compound identified as CC(SC(=S)Nc1cccc(F)c1)C(=O)O (stereo not drawn) registered its TGI at 33.5 µM

The compound identified as `Cc1noc(NS(=O)(=O)c2ccc(NC(=O)c3ccc4nc5ccccc5c(Nc5ccc(S(=O)(=O)Nc6onc(C)c6C)cc5)c4c3)cc2)c1C` registered its TGI at > 100 µM
